Cited source for all entries: patent US20220064286A1

Recorded measurements of kon, one per entry
Study system: T1, human TIGIT protein (human, UniProt Q495A1 22-141, limits assumed)
T1 construct: Recombinant protein (Genentech) used in ELISA screening and as SPR analyte; also called TIGIT antigen
T1 sequence: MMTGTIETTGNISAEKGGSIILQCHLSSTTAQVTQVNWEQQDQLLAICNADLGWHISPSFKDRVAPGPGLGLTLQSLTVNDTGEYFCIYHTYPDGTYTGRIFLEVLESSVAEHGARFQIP
Experiment notes: SPR, captured mAb
Give the number; M⁻¹ s⁻¹ is assumed, so skip it.

The examples below pair each entry with its known result.
Binder: h15C8.L5H1 (antibody, V domains shown, VL: I58V, Y71F, F87Y against h15C8.L1H1; FR/HVR pieces) VH: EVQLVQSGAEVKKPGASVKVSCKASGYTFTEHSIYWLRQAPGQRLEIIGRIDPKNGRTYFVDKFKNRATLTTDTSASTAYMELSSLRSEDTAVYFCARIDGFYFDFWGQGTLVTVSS VL: DIQLTQSPSFLSASVGDRVTITCKGSQNVNKYLVWYQQKPGKAPKLLIYSTDNLQSGVPSRFSGSGSGTEFTLTISSLQPEDFATYYCYQYNNGFTFGQGTKVEIK
kon / M⁻¹ s⁻¹: 674000
--
Binder: h7E7.L1H3 (antibody, V domains shown, VH: I48M against h7E7.L1H1; FR/HVR pieces) VH: EVQLVQSGAEVKKPGASVKVSCKASGYTFTEYSIYWVRQAPGQRLEIMGRIDPKNGRTYYVDKFKNRATLTADTSASTAYMELSSLRSEDTAVYFCTRIYGFYFDFWGQGTLVTVSS VL: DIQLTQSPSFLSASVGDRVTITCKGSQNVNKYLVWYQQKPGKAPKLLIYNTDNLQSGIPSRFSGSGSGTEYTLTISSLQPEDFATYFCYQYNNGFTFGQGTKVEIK
kon / M⁻¹ s⁻¹: 2.82e+06

Moving on to another binder below.
Just so you know, measured kon for h15C8.L5aH9a (antibody, V domains shown, Final humanized 15C8; keeps rat VH I47, L37, A67, T71 and VL Y71; FR/HVR pieces) VH: EVQLVQSGAEVKKPGASVKVSCKASGYTFTEHSIYWLRQAPGQRLEIMGRIDPKNGRTYFVDKFKNRATITTDTSASTAYMELSSLRSEDTAVYYCARIDGFYFDFWGQGTLVTVSS VL: DIQLTQSPSFLSASVGDRVTITCKGSQNVNKYLVWYQQKPGKAPKLLIYSTDNLQSGVPSRFSGSGSGTEYTLTISSLQPEDFATYYCYQYNNGFTFGQGTKVEIK came out at 1.12e+06
